Biological target: T1, human chemokine (C-C motif) receptor 8 (CCR8) (human, UniProt P51685 1-355)
T1 construct: also called hCCR8
T1 sequence (P51685 whole entry): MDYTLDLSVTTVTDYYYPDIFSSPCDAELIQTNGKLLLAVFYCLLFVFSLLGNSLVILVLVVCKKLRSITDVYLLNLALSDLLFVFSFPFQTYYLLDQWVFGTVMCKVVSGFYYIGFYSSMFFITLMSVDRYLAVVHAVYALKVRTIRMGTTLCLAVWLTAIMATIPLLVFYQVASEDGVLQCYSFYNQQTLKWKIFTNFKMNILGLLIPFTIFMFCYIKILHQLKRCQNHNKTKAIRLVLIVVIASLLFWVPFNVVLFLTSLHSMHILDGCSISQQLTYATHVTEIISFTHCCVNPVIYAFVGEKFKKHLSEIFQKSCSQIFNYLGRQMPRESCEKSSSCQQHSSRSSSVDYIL
Test: flow cytometry blocking, human PBMC, CD3+ gate; % cells stained by competitor PE-AB11 after block
Protocol: For blocking studies, 100 μL of the cell suspension were incubated with 10 μg purified isotype control, AB1, AB2, AB3, AB4, AB5, AB8, AB9, AB10, AB11, AB12, AB13, AB14, AB15, and Commercial ABI antibodies, or isotype control, as blocking agents. […]
Recorded % Positive cells values for a group of binders are listed next.
// return numeric value only (unit: %, not printed)

*Q* What % Positive cells value was documented for this binder, anti-CCR8 monoclonal antibody AB5 (antibody, V domains shown, Hybridoma monoclonal; also called antibody 5; clone 5) VH: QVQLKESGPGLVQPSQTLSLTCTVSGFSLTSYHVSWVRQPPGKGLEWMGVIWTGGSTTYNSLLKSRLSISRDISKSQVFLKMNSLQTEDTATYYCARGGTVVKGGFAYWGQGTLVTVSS VL: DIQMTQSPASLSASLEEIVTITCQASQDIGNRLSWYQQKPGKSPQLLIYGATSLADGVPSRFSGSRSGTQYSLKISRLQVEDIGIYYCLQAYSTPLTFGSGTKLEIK ?
*A* 7.14

*Q* Value lookup for % Positive cells; key = anti-CCR8 monoclonal antibody AB10 (antibody, V domains shown, Hybridoma monoclonal; also called antibody 10; clone 10) VH: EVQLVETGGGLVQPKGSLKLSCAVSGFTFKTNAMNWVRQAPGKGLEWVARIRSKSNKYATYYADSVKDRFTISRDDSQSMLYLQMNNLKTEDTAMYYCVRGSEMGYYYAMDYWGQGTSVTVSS VL: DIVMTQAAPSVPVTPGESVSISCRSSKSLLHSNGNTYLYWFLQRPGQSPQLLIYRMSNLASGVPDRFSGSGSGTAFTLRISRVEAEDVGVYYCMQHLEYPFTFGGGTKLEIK
*A* 0.28

Now for the binder whose % Positive cells we want.
*Q* Param item = anti-CCR8 monoclonal antibody AB13 (antibody, V domains shown, Hybridoma monoclonal; also called antibody 13; clone 13) VH: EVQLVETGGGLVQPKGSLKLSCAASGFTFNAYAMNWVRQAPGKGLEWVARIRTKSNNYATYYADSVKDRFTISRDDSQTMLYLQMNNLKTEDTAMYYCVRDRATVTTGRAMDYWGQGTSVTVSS VL: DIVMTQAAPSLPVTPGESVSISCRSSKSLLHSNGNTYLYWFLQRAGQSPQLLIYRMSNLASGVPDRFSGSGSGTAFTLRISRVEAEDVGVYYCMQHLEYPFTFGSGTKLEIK ; retrieve measured % Positive cells.
*A* 6.96

Value source: patent US20240360228A1
